# ASSAYED SYSTEM: Peroxisome proliferator-activated receptor delta (Homo sapiens, UniProt Q03181)
# Sequence (Q03181 whole entry): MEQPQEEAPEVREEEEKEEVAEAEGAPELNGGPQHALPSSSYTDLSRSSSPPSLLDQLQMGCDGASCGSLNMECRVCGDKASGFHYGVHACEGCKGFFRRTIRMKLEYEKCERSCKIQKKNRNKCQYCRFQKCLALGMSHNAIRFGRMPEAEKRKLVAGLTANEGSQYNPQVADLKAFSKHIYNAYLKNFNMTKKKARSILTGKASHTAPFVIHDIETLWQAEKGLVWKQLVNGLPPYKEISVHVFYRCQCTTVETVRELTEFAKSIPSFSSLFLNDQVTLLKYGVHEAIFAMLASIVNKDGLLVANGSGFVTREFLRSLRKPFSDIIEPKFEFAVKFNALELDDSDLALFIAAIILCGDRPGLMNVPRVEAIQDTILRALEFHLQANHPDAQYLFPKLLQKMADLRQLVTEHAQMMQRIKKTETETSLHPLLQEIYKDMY
# ASSAY EXPLANATION: Inhibition of human PPARdelta

| STRUCTURE SMILES STRING | EC50 |
| --- | --- |
| CC(=O)N1C[C@H](C(=O)Nc2ccc(C)cc2C)[C@@H](c2nnc([C@H]3C[C@@H](CC(C)C)C3)n2C2CC2)C1 | > 20 µM |

* * *

# ASSAYED SYSTEM: Vitamin D3 receptor (Homo sapiens, UniProt P11473)
# Sequence (P11473 whole entry): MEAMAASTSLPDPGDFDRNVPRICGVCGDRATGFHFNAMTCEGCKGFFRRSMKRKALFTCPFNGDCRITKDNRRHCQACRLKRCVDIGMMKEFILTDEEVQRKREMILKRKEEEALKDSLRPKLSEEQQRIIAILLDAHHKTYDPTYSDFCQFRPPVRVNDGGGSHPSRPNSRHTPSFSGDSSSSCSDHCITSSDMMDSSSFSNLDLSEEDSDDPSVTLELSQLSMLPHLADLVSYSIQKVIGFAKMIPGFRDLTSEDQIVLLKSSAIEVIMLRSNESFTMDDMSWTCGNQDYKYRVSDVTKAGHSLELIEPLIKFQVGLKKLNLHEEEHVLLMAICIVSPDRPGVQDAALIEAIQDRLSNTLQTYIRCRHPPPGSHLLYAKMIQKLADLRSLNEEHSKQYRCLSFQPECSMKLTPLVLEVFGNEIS
# ASSAY EXPLANATION: Inhibition of human VDR
pEC50: −log10 of the molar value.
MEASURED PROPERTY: pEC50

| STRUCTURE SMILES STRING | MEASURED PROPERTY | VALUE REPORTED |
| --- | --- | --- |
| CC(=O)N1C[C@H](C(=O)Nc2ccc(C)cc2C)[C@@H](c2nnc([C@H]3C[C@@H](CC(C)C)C3)n2C2CC2)C1 | pEC50 | < 4.70 |

* * *

# ASSAYED SYSTEM: Peroxisome proliferator-activated receptor gamma (Homo sapiens, UniProt P37231)
# Sequence (P37231 whole entry): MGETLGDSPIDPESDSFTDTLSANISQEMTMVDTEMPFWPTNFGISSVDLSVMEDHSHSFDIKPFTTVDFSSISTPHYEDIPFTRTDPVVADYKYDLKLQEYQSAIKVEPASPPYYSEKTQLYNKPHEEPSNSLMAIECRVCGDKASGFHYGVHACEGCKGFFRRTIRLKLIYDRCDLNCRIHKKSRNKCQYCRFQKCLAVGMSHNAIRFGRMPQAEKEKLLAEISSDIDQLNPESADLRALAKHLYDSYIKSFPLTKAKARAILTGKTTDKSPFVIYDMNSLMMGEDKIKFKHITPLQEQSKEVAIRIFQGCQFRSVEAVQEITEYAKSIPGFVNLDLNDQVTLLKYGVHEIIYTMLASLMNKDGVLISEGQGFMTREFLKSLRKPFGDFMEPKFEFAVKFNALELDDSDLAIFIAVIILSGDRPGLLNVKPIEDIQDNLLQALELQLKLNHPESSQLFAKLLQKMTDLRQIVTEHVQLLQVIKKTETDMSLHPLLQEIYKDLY
# ASSAY EXPLANATION: Inhibition of human PPARgamma

| STRUCTURE SMILES STRING | EC50 |
| --- | --- |
| CC(=O)N1C[C@H](C(=O)Nc2ccc(C)cc2C)[C@@H](c2nnc([C@H]3C[C@@H](CC(C)C)C3)n2C2CC2)C1 | > 20 µM |

* * *

# ASSAYED SYSTEM: Progesterone receptor (Homo sapiens, UniProt P06401)
# Sequence (P06401 whole entry): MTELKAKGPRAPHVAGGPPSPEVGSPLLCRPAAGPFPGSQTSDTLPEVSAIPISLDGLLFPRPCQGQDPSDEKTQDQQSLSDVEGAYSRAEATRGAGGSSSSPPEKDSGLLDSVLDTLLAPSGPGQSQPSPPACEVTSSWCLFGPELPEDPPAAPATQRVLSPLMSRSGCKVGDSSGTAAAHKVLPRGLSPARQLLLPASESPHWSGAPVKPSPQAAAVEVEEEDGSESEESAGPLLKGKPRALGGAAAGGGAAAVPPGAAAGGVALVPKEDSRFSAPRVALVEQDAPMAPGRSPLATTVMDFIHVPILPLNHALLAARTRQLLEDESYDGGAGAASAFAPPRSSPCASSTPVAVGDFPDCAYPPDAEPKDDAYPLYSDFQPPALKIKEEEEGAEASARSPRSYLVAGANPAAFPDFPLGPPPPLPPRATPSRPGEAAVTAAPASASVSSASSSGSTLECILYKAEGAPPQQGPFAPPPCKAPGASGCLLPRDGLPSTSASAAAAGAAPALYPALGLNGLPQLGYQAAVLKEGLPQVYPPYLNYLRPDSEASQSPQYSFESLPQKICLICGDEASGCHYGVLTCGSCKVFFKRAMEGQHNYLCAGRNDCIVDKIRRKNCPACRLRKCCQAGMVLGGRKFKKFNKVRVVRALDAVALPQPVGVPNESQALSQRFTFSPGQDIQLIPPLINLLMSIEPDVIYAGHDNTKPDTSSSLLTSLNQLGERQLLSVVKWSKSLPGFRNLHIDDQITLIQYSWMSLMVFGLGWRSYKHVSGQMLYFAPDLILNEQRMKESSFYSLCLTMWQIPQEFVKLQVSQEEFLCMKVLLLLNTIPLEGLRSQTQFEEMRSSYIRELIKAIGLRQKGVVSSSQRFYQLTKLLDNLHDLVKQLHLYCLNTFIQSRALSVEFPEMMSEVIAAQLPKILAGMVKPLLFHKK
# ASSAY EXPLANATION: Inhibition of human PR
pEC50: −log10 of the molar value.
MEASURED PROPERTY: pEC50

| STRUCTURE SMILES STRING | ASSAYED SYSTEM | MEASURED PROPERTY | VALUE REPORTED |
| --- | --- | --- | --- |
| CC(=O)N1C[C@H](C(=O)Nc2ccc(C)cc2C)[C@@H](c2nnc([C@H]3C[C@@H](CC(C)C)C3)n2C2CC2)C1 | Progesterone receptor (Homo sapiens, UniProt P06401) | pEC50 | < 4.70 |

* * *

# ASSAYED SYSTEM: Cytochrome P450 3A4 (Homo sapiens, UniProt P08684)
# Sequence (P08684 whole entry): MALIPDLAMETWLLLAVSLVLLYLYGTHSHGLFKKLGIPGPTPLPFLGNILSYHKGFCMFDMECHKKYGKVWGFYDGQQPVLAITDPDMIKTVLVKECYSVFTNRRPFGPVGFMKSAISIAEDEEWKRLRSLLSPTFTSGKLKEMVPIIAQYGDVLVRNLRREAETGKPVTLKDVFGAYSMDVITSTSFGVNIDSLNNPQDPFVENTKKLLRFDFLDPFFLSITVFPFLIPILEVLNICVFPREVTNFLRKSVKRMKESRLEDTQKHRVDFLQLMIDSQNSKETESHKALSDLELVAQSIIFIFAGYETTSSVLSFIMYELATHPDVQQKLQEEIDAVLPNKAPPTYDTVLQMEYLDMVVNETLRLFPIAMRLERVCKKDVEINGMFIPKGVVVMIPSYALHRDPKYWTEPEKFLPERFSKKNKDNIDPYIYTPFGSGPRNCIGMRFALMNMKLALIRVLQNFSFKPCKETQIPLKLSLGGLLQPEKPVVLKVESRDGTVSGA
# ASSAY EXPLANATION: Inhibition of human CYP3A4

| STRUCTURE SMILES STRING | ASSAYED SYSTEM | IC50 |
| --- | --- | --- |
| CCn1c(SCC(=O)Nc2cccc3ccccc23)nnc1C1Cc2ccccc2C1 | Cytochrome P450 3A4 (Homo sapiens, UniProt P08684) | 4 µM |

* * *

# ASSAYED SYSTEM: Steroidogenic factor 1 (Homo sapiens)
# Sequence (Q13285 whole entry): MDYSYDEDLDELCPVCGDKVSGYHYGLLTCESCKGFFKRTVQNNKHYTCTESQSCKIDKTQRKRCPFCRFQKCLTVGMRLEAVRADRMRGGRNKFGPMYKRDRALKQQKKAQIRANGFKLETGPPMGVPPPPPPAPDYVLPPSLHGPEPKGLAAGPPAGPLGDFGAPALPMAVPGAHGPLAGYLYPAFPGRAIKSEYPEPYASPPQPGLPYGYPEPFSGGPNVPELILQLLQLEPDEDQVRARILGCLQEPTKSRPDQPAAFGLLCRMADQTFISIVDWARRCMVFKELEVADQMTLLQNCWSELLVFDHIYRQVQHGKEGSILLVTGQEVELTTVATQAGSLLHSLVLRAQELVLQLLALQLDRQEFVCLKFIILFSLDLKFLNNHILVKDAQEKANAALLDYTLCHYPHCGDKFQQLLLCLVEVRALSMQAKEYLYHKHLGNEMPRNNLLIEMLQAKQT
# ASSAY EXPLANATION: Inhibition of human SF-1 receptor
pEC50: −log10 of the molar value.
MEASURED PROPERTY: pEC50

| STRUCTURE SMILES STRING | MEASURED PROPERTY | VALUE REPORTED |
| --- | --- | --- |
| CC(=O)N1C[C@H](C(=O)Nc2ccc(C)cc2C)[C@@H](c2nnc([C@H]3C[C@@H](CC(C)C)C3)n2C2CC2)C1 | pEC50 | < 4.70 |

* * *

Each entry below lists one item and its recorded pEC50 value.
# ASSAYED SYSTEM: Nuclear receptor ROR-gamma (Mus musculus)
# Sequence (P51450 whole entry, the tested form may be a part): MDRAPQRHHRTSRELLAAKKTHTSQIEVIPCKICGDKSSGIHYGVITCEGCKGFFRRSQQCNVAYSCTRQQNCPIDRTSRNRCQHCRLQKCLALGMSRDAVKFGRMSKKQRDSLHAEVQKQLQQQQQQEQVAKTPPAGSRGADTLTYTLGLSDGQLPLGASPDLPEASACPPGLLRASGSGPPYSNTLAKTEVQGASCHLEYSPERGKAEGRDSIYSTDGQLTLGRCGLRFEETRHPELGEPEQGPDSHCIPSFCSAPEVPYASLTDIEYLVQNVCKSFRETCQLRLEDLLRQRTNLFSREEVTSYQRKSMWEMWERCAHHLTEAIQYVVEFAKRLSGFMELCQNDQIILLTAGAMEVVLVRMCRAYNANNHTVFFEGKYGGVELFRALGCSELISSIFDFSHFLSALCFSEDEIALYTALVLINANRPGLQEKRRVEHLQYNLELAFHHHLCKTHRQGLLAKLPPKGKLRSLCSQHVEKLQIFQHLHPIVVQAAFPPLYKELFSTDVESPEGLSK
# ASSAY EXPLANATION: Inhibition of mouse RORgamma ligand binding domain (Isoleucine 251 to Lysine 516) expressed in CHOK1 cells incubated for 2 days by Gal4 luciferase reporter gene assay
pEC50: −log10 of the molar value.

| COMPOUND | RELATION QUALIFIER | pEC50 |
| --- | --- | --- |
| Cc1ccc(NC(=O)CCc2nnc(-c3ccc(CC(C)C)cc3)n2C2CC2)c(C)c1 | = | 6.92 |
| CCn1c(CCC(=O)Nc2ccc(C)cc2C)nnc1CCC1CCCCC1 | = | 6.22 |
| CCn1c(CC(C)C(=O)Nc2cccc3ccccc23)nnc1C1Cc2ccccc2C1 (racemic) | = | 6.17 |
| Cc1ccc(NC(=O)[C@H]2CN(C)CC[C@@H]2c2nnc([C@H]3C[C@@H](CC(C)C)C3)n2C2CC2)c(C)c1 (racemic) | = | 6.54 |
| CCn1c(CCC(=O)Nc2cccc3ccccc23)nnc1CCc1ccccc1 | = | 6.20 |
| CCn1c(CCC(=O)Nc2cccc3ccccc23)nnc1CCC(C)C | = | 5.85 |
| Cc1ccc(NC(=O)[C@H]2C[C@@H](O)C[C@@H]2c2nnc([C@H]3C[C@@H](CC(C)C)C3)n2C2CC2)c(C)c1 | = | 7.42 |
| CCn1c(C(O)CC(=O)Nc2cccc3ccccc23)nnc1C1Cc2ccccc2C1 (racemic) | < | 4.70 |
| CCC(C)CCc1nnc(CCC(=O)Nc2ccc(C)cc2C)n1C1CC1 (racemic) | = | 5.85 |

* * *

# ASSAYED SYSTEM: Nuclear receptor ROR-gamma (Homo sapiens, UniProt P51449)
# Sequence (P51449 whole entry, the tested form may be a part): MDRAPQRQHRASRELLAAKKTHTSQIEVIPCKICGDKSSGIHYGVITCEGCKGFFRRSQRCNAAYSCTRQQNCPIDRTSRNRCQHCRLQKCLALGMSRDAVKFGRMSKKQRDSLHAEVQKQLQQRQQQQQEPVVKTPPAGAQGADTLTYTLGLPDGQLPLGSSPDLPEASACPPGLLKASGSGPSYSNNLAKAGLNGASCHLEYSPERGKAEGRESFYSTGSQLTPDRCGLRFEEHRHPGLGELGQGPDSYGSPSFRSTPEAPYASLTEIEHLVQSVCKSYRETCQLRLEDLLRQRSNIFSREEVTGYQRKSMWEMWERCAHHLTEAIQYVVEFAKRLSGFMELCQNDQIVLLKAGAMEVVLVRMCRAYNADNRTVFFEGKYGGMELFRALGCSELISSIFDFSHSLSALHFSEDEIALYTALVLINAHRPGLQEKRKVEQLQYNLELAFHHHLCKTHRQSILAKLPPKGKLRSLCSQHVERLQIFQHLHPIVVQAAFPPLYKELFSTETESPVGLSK
# ASSAY EXPLANATION: Inhibition of human GST-tagged RORgamma ligand binding domain (253 to 518 residues) expressed in sf9 cells using biotin-EEPSLLKKLLLAPA by FRET assay
pEC50: −log10 of the molar value.
MEASURED PROPERTY: pEC50

| STRUCTURE SMILES STRING | VALUE REPORTED |
| --- | --- |
| CCn1c(SCC(=O)Nc2cccc3ccccc23)nnc1C1Cc2ccccc2C1 | 6.07 |

* * *

# ASSAY EXPLANATION: Metabolic stability in liver S9 fraction (unknown origin) assessed as parent compound remaining incubated for 60 mins
# Format: ADME, subcellular
# EXPERIMENTAL SETUP: human, read-out: Stability
// NB: equality with 50% counts as not met; only remaining at 1 h strictly below is met

| COMPOUND | ASSIGNED CATEGORY |
| --- | --- |
| Cc1ccc(NC(=O)[C@H]2CN(C)CC[C@@H]2c2nnc([C@H]3C[C@@H](CC(C)C)C3)n2C2CC2)c(C)c1 (racemic) | met |
| Cc1ccc(NC(=O)CCc2nnc([C@H]3C[C@@H](CC(C)C)C3)n2C2CC2)c(C)c1 | met |
| Cc1ccc(NC(=O)CCc2nnc(-c3cc(CC(C)C)on3)n2C2CC2)c(C)c1 | met |
| Cc1ccc(NC(=O)CCc2nnc(CCC3CCCCC3)n2C2CCC2)c(C)c1 | met |
| CC(=O)N1C[C@H](C(=O)Nc2ccc(C)cc2C)[C@@H](c2nnc([C@H]3C[C@@H](CC(C)C)C3)n2C2CC2)C1 | not met |
| CCn1c(CCC(=O)Nc2ccc(C)cc2C)nnc1CCC1CCCCC1 | met |
| Cc1ccc(NC(=O)CCc2nnc(CCCC(C)C)n2C2CC2)c(C)c1 | met |
| Cc1ccc(NC(=O)CCc2nnc(CCC3CCCCC3)n2C2CC2)c(C)c1 | met |
| Cc1ccc(NC(=O)[C@H]2C[C@@H](O)C[C@@H]2c2nnc([C@H]3C[C@@H](CC(C)C)C3)n2C2CC2)c(C)c1 | not met |
| Cc1ccc(NC(=O)CCc2nnc(-c3ccc(CC(C)C)cc3)n2C2CC2)c(C)c1 | not met |
| CCC(C)CCc1nnc(CCC(=O)Nc2ccc(C)cc2C)n1C1CC1 (racemic) | met |
| Cc1ccc(NC(=O)CCc2nnc([C@H]3C[C@H](CC(C)C)C3)n2C2CC2)c(C)c1 | met |
| Cc1ccc(NC(=O)CCc2nnc(CCC3CCCCC3)n2C2CC2(F)F)c(C)c1 (centres undefined) | not met |
